condition notes: in tetrachloromethane, 273.65 K
measured endpoint: solubility (mole fraction)
// no unit string in output, number only

Quick one: give measured solubility (mole fraction) for `COC(=O)C(C)(C)N=NC(C)(C)C(=O)OC`
0.314

----------
condition notes: in ethanol, 283.15 K
measured endpoint: solubility (mole fraction)

Quote solubility (mole fraction) reported for `COC(=O)C(C)(C)N=NC(C)(C)C(=O)OC` please.
0.17

----------
condition notes: in THF, 283.15 K
measured endpoint: solubility (mole fraction)

Tell us which solubility (mole fraction) value is on record for `COC(=O)C(C)(C)N=NC(C)(C)C(=O)OC`
0.497

----------
condition notes: in dichloromethane, 257.05 K
measured endpoint: solubility (mole fraction)
// response body must contain only the number

Respond only with solubility (mole fraction) recorded for `COC(=O)C(C)(C)N=NC(C)(C)C(=O)OC`
0.281

----------
condition notes: in n-propanol, 283.55 K
measured endpoint: solubility (mole fraction)
Reply: number alone, nothing else.

Supply solubility (mole fraction) value. Item: `COC(=O)C(C)(C)N=NC(C)(C)C(=O)OC`
0.173

----------
condition notes: in tetrachloromethane, 283.35 K
measured endpoint: solubility (mole fraction)
Lab note: jot the number down without any unit.

State its solubility (mole fraction): `COC(=O)C(C)(C)N=NC(C)(C)C(=O)OC`
0.506

----------
condition notes: in acetone, 254.45 K
measured endpoint: solubility (mole fraction)

Report measured solubility (mole fraction); entry is `COC(=O)C(C)(C)N=NC(C)(C)C(=O)OC`
0.0922

----------
condition notes: in n-propanol, 286.15 K
measured endpoint: solubility (mole fraction)
# print the numeric value only

Answer with reported solubility (mole fraction) of `COC(=O)C(C)(C)N=NC(C)(C)C(=O)OC`
0.25

----------
condition notes: in isopropanol, 278.05 K
measured endpoint: solubility (mole fraction)
Respond numerically, and do not add a unit to the figure.

Please list solubility (mole fraction) recorded for the molecule `COC(=O)C(C)(C)N=NC(C)(C)C(=O)OC`
0.0853

----------
condition notes: in acetone, 257.95 K
measured endpoint: solubility (mole fraction)
Write the value as a bare number.

Provide measured solubility (mole fraction) value, entry: `COC(=O)C(C)(C)N=NC(C)(C)C(=O)OC`
0.112

----------
condition notes: in acetonitrile, 293.15 K
measured endpoint: solubility (mole fraction)

Assign solubility (mole fraction) to the following record: `COC(=O)C(C)(C)N=NC(C)(C)C(=O)OC`
0.702

----------
condition notes: in methanol, 261.55 K
measured endpoint: solubility (mole fraction)
Hey, just send me the number, nothing else.

In one line, give reported solubility (mole fraction) of the entry `COC(=O)C(C)(C)N=NC(C)(C)C(=O)OC` .
0.0203

----------
condition notes: in isobutanol, 280.65 K
measured endpoint: solubility (mole fraction)
Please respond with just the number, no unit label.

Determine its reported solubility (mole fraction): `COC(=O)C(C)(C)N=NC(C)(C)C(=O)OC`
0.122

----------
condition notes: in tetrachloromethane, 260.35 K
measured endpoint: solubility (mole fraction)
# print the numeric value only

Identify the reported solubility (mole fraction) for the following entry. `COC(=O)C(C)(C)N=NC(C)(C)C(=O)OC`
0.144

----------
condition notes: in ethyl acetate, 293.25 K
measured endpoint: solubility (mole fraction)
A bare number is all that is needed in reply.

Specify measured solubility (mole fraction) for `COC(=O)C(C)(C)N=NC(C)(C)C(=O)OC` .
0.744
